# Tested on: SF-539 CNS
# MEASUREMENT DESCRIPTION: NCI-60 one-dose screen, 48 h
# CONDITION DESCRIPTION: 10 µM unless noted
About 83,000 compounds went through this panel and 20% of them were active in at least one assay; those are over-represented in the sample as a whole. Calls of active or inactive are those of the source. Rule for the calls: active = growth percent below 10; inactive = the rest.
Respond only with the outcome that fits, drawn from active, inactive

Some solved cases for reference:
1. CNC(=O)c1cc(Oc2ccc3nc(NC(=O)c4cc(N5CCOCC5)cc(C(F)(F)F)c4)sc3c2)ccn1
inactive
2. C[C@H]1c2[nH]c3ccccc3c2C[C@H]2C(=O)N(CCCCCCC(=O)NO)CC(=O)N21
inactive
3. COC(=O)c1ccc(NC2=C/C(=N/S(=O)(=O)c3ccc(C(=O)O)cc3)c3ccccc3C2=O)cc1
active
4. COc1ccc(NC2=C(Cl)C(=O)c3nc(C)ccc3C2=O)cc1OC
inactive

As a next step, examine the compound that follows.
Ask | Can you look up the reported call for COc1ccc(S(=O)(=O)NCCCNc2nccc(-c3cn(C(C)(C)C)nc3-c3ccc(Cl)c(OC)c3)n2)cc1 for me?
Reply | inactive

---

Entries and their measured growth follow.
# System: SR leukemia
# MEASUREMENT DESCRIPTION: NCI-60 one-dose screen, 48 h (100 = growth as untreated, 0 = no growth, -100 = all killed)
# CONDITION DESCRIPTION: 10 µM unless noted
# Description: Growth inhibition of the SR human tumor cell line is measured as a screen for anti-cancer activity. Cells are grown in 96 well plates and exposed to the test compound for 48 hours. Compounds are tested at a single concentration, which is 10^-5 M for most compounds. The reported endpoint is percent growth (GI% or GIPRCNT), where numbers from 0 - 100% represent growth inhibition, and numbers from -100% - 0 represent cell death. For example, a value of 40 represents 60% growth inhibition. […]
The panel holds about 83,000 compounds, 20% with a hit somewhere; the sample as a whole holds those more often.
Response body: numeric value in %, unit text excluded.

1) O=C(NNc1nc2cc(F)ccc2n2c(CN3CCC(O)C3)ccc12)c1cnccn1 (stereo not given)
6.32
2) Nc1ccccc1NC(=O)c1ccc(NC(=O)C/C=C/c2cccnc2)cc1
30.7
3) O=C(CCn1cc[n+](CC(=O)c2ccc(-c3ccccc3)cc2)c1)Nc1cccc2cccnc12
79.8
4) O=C(NNc1nc2cc(F)cc(F)c2n2cccc12)c1cnccn1
8.81

Ask | Which growth value belongs to CCCCCc1ccc(S(=O)(=O)Nc2cc(-c3csc(NC(=O)CN4CCN(CCO)CC4)n3)ccc2OC)cc1 ?
Reply | -13.2

---

# Tested on: MCF7 breast
# MEASUREMENT DESCRIPTION: NCI-60 one-dose screen, 48 h (100 = growth as untreated, 0 = no growth, -100 = all killed)
# CONDITION DESCRIPTION: 10 µM unless noted
The panel holds about 83,000 compounds, 20% with a hit somewhere; the sample as a whole holds those more often. Active and inactive are the calls of the source. How the source made its calls: active means growth percent below 10; inactive means the rest.
MEASURE NAME: growth

Reference set (5 entries):
1) COc1cc(-c2nn(C(C)(C)C)cc2-c2ccnc(NCCCNS(=O)(=O)c3cccc(F)c3)n2)ccc1Cl
71.3% (inactive)
2) C=CCn1c(SCC(=O)Nc2ccc(C(=O)/C=C/c3ccc(Br)cc3)cc2)nnc1-c1c[nH]c2ccccc12
22.8% (inactive)
3) Nc1ccccc1NC(=O)c1ccc(NC(=O)C/C=C/c2cccnc2)cc1
17.4% (inactive)
4) CC1(C)CC[C@]2(C(=O)N3CCOCC3)CC[C@]3(C)C(=CC[C@@H]4[C@@]5(C)C/C(=C/c6ccccn6)C(=O)C(C)(C)[C@@H]5CC[C@]43C)[C@@H]2C1
44% (inactive)
5) CS(=O)(=O)Nc1cc(-c2ccc3ncc(C#N)c(Nc4cccc(Cl)c4F)c3c2)cnc1Cl
3.98% (active)

Ask | Which growth value belongs to O=C(CNc1nc(-c2cccc([N+](=O)[O-])c2)cs1)Nc1cccc(Cl)c1 ?
Reply | 91.3% (inactive)

Ask | Which growth value belongs to COc1cc2nc(Cl)nc(Nc3cccc(C4=Nc5c(N)nc(N)nc5NC(c5ccc(Cl)cc5)C4)c3)c2cc1OC (stereo not drawn) ?
Reply | 13% (inactive)

Ask | Which growth value belongs to C[C@@H](Nc1c(C#N)cnc2ccc(-c3cnc(Cl)c(NS(C)(=O)=O)c3)cc12)c1ccccc1 ?
Reply | 6.51% (active)
